// reported TGI for each item listed
# System: RXF 393 renal
# protocolNotes: NCI tumour cell line growth inhibition, 48 h
Report as a plain number; the unit µM is understood.

| compound | u | measuredValue |
| --- | --- | --- |
| COc1ccc2nc(-c3ccc(O)cc3)sc2c1 | µM | 40.9 |

Quick one: TGI for CSc1nc(SC)c2c(CO)c(Br)n(Cc3ccccc3)c2n1 ?
60.3

For Cc1cc(Cl)ccc1NC(=O)CC1SC(=Nc2ccccc2Cl)NC1=O (configuration not stated) then?
84.3

Thanks! And BrC(c1cccc2ccccc12)c1cccc2ccccc12 ?
27.9

Next: CC1=C(C)Cc2c(O)ccc(O)c2C1
30

Same lookup for CCOC(=O)CCC(NC(=O)c1ccc(OCc2ccc3nc(-c4ccccc4)c(Cl)nc3c2)cc1)C(=O)OCC (configuration not stated) , please.
8.6

And for O=c1c(O)c(-c2cc(O)c(O)c(O)c2)oc2cc(O)cc(O)c12 ?
43.4

Subsequent entry: O=C1Oc2cc(O)cc(/C=C/c3ccc(O)cc3)c2[C@@]12c1c(O)cc(O)cc1OC2c1cccc(O)c1 (some centres not stated)
94.3

Now consider O=C1C(=O)c2cccnc2-c2ncccc21 .
0.266

Values compiled from PubChem BioAssay (NCI).
